- target.entity: CDK2 (human) (UniProt P24941)
- assay.overview: Enzyme Assay
hey, just use 1 if measured IC50 is less than 1 µg/mL, otherwise -1

Recorded results for 7 compounds are shown here.
CNCc1csc(C=NNc2ncnc3sc(C4CC4)cc23)n1
-1
CCC(C)c1cc2c(NN=Cc3nc(CNC)cs3)ncnc2s1 (stereo not given)
1
CCCC(C)c1cc2c(NN=Cc3nc(CNC)cs3)ncnc2s1 (stereo not given)
-1
CNCc1ccc(C=NNc2ncnc3sc(C(C)(C)C)cc23)cc1
1
CNCc1csc(C=NNc2ncnc3sc(C(C)(C)CO)cc23)n1
-1
CC(N)c1csc(C=NNc2ncnc3sc(C(C)(C)C)cc23)n1 (stereo not given)
1
CNCc1cnc(C=NNc2ncnc3sc(C(C)(C)C)cc23)s1
1

Here's the next entry for you.
I wonder whether `CNCc1csc(C=NNc2ncnc3sc(C4CCC4)cc23)n1` has IC50 below 1 µg/mL. Can you tell? -1
